assay: Stability of peptides in simulated gastric fluid (pH 1.5; HCl, NaCl and Pepsin); format: in vitro ADME; conditions: simulated gi fluid, pH 1.5
Where a SMILES comes first, the peptide text is derived from it. [ ]: non-standard residue; d: D form. ξ: configuration not given here. Arg(NO2) = N=C(NCCC[C@H](N)C(=O)O)N[N+](=O)[O-]; ξαMePhe(2,6-F2) = CC(N)(Cc1c(F)cccc1F)C(=O)O; αMePhe(2-F) = C[C@](N)(Cc1ccccc1F)C(=O)O; ξαMePhe(2-F) = CC(N)(Cc1ccccc1F)C(=O)O; hArg = N=C(N)NCCCC[C@H](N)C(=O)O; ξαMeF = CC(N)(Cc1ccccc1)C(=O)O; Nle = CCCC[C@H](N)C(=O)O; Orn = NCCC[C@H](N)C(=O)O; Ac5c = NC1(C(=O)O)CCCC1; Aib = CC(C)(N)C(=O)O
List of half-life values.
Return type: number; implicit unit min.

Inquiry: Given the entry CCCC[C@H](NC(=O)[C@](C)(Cc1ccccc1F)NC(=O)[C@H](CCC(N)=O)NC(=O)[C@@H](NC(=O)[C@H](CCC(=O)O)NC(=O)C(C)(C)NC(=O)[C@@H](NC(=O)C(C)(C)N)C(C)C)[C@@H](C)CC)C(=O)N[C@@H](Cc1c[nH]cn1)C(=O)N[C@@H](CCC(N)=O)C(=O)N[C@@H](CCCN)C(=O)N[C@@H](C)C(=O)N[C@@H](CCCNC(=N)N[N+](=O)[O-])C(=O)N[C@@](C)(Cc1ccccc1F)C(N)=O [Seq. ID. 329] (H-[Aib]V[Aib]EIQ[αMePhe(2-F)][Nle]HQ[Orn]A[Arg(NO2)][αMePhe(2-F)]-NH2) , report its measured half-life.
Reply text: 30

Inquiry: # input molecule: CCCC[C@H](NC(=O)C(C)(Cc1ccccc1F)NC(=O)[C@H](CCC(N)=O)NC(=O)[C@@H](NC(=O)[C@H](CCC(=O)O)NC(=O)C(C)(C)NC(=O)[C@@H](NC(=O)C1(N)CCCC1)C(C)C)[C@@H](C)CC)C(=O)N[C@@H](Cc1c[nH]cn1)C(=O)N[C@@H](CCC(N)=O)C(=O)N[C@@H](CCCN)C(=O)N[C@@H](C)C(=O)NC(C)(Cc1c(F)cccc1F)C(=O)NC(C)(Cc1ccccc1F)C(N)=O (stereo partly shown) [Seq. ID. 315] (H-[Ac5c]V[Aib]EIQ[ξαMePhe(2-F)][Nle]HQ[Orn]A[ξαMePhe(2,6-F2)][ξαMePhe(2-F)]-NH2) ; wanted: its half-life
Reply text: 30

Inquiry: # get_value(readout='half-life', item= CCCC[C@H](NC(=O)[C@H](CC(C)C)NC(=O)[C@H](CCC(N)=O)NC(=O)[C@@H](NC(=O)[C@H](CCC(=O)O)NC(=O)C(C)(C)NC(=O)[C@@H](NC(=O)C(C)(C)N)C(C)C)[C@@H](C)CC)C(=O)N[C@@H](Cc1c[nH]cn1)C(=O)N[C@@H](CCC(N)=O)C(=O)N[C@@H](CCCCNC(=N)N)C(=O)NC(C)(C)C(=O)N[C@@H](CCCCN)C(=O)NC(C)(Cc1ccccc1)C(N)=O (stereo partly shown) [Seq. ID. 10] (H-[Aib]V[Aib]EIQL[Nle]HQ[hArg][Aib]K[ξαMeF]-NH2) )
Reply text: 30
